- System: NCI-H358 (K-Ras G12C)
- Measurement Description: CellTiter-Glo cell viability assay, NCI-H358
- Format: cell-based, human
- Run Conditions: Homo sapiens, NCI-H358, 120 h, NCI-H358, 5-day treatment; class symbols; read-out: Additional H358 Cell Viability assay data (K-Ras G12C, IC50)
pIC50: −log10 of the molar value.
Value Kind: pIC50

Take a look at these entries with their results.
For CCn1c(-c2cccnc2[C@H](C)OC)c2c3cc(ccc31)-c1cc(O)cc(c1)C[C@H](NC(=O)[C@H](C(C)C)N(C)C(=O)c1ncc(NC(=O)/C=C/CN(C)C)s1)C(=O)N1CCC[C@H](N1)C(=O)OCC(C)(C)C2 (atropisomer, axis not shown) , what is its reported pIC50? 6.00 to 7.00

pIC50 for C=CC(=O)N1CC[C@H](C(=O)N(C)[C@H](C(=O)N[C@H]2Cc3cccc(c3)-c3ccc4c(c3)c(c(-c3cccnc3[C@H](C)OC)n4CC)CC(C)(C)COC(=O)[C@@H]3CCCN(N3)C2=O)C2CCC2)C1 (atropisomer, axis not shown) ? 7.00 to 8.00

New cases:
Please look up its pIC50: C=CC(=O)N1CC(O[C@H](C(=O)N[C@H]2Cc3cc(O)cc(c3)-c3ccc4c(c3)c(c(-c3cccnc3COC)n4CC)CC(C)(C)COC(=O)[C@@H]3CCCN(N3)C2=O)C(C)C)C1 < 6.00

Reported pIC50, molecule C=CC(=O)N1CC[C@H](C(=O)N(C)[C@H](C(=O)N[C@@H]2C(=O)N3CCC[C@H](N3)C(=O)OCC(C)(C)Cc3c(-c4cncnc4)n(CC)c4ccc(cc34)-c3cccc(c3)[C@H]2O)C(C)C)C1 : ____ < 6.00

====

- Experimental System: K-Ras G13C (Homo sapiens (Human), UniProt P01116+P62937, G13C)
- Sequence (P01116-2 other isoform, or with tags, fused parts or gaps G13C, one chain of several): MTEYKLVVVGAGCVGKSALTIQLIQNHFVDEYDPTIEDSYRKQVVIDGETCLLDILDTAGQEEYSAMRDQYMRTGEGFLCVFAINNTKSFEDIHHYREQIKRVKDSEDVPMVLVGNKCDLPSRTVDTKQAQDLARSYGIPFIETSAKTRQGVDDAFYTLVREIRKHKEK
- Measurement Description: Ras-Raf (BRAF RBD) disruption / FRET / MOA assay, KRAS G13C
- Assay type: biochemical
- Run Conditions: KRAS G13C; Ras-Raf disruption/FRET/MOA assay; read-out: IC50* KRAS G13C FRET data
pIC50: −log10 of the molar value.
Value Kind: pIC50

A selection of reference data follows.
Data request, read-out pIC50, for C=CC(=O)N1CCC(C(=O)N(C)[C@H](C(=O)N[C@H]2Cc3cc(O)cc(c3)-c3ccc4c(c3)c(c(-c3ccccc3CCOC)n4CC)CC(C)(C)c3coc(n3)[C@@H]3CCCN(N3)C2=O)C(C)C)C1 (single isomer, unassigned) [Example A231] < 5.00

I'd like to know its pIC50. The compound in question is CCn1c(-c2cccnc2[C@H](C)OC)c2c3cc(ccc31)-c1cc(O)cc(c1)C[C@H](NC(=O)[C@H](C(C)C)N(C)C(=O)c1ccc(NC(=O)/C=C/CN(C)C)nc1)C(=O)N1CCC[C@H](N1)C(=O)OCC(C)(C)C2 (atropisomer, axis not shown) [Example A249] 7.00 to 8.00

Bench note: what pIC50 did CCn1c(-c2cnccc2COC)c2c3cc(ccc31)-c1cncc(c1)C[C@H](NC(=O)[C@H](C(C)C)N(C)C(=O)[C@H]1CCN(C(=O)C#CCN(C)C)C1)C(=O)N1CCC[C@H](N1)C(=O)OCC(C)(C)C2 [Example A139] show? 5.00 to 6.00

# ---- query compound ----
Which pIC50 is listed for C=CC(=O)N1CCC(C(=O)N(C)[C@H](C(=O)N[C@H]2CCC(=O)N(C)Cc3ccc4c(c3)c(c(-c3cccnc3[C@H](C)OC)n4CC)CC(C)(C)COC(=O)[C@@H]3CCCN(N3)C2=O)C(C)C)C1 (atropisomer, axis not shown) [Example A500] ? < 5.00

====

- Experimental System: KRAS WT (Homo sapiens (Human), UniProt P01116+P62937)
- Sequence (P01116-2 other isoform, or with tags, fused parts or gaps, one chain of several): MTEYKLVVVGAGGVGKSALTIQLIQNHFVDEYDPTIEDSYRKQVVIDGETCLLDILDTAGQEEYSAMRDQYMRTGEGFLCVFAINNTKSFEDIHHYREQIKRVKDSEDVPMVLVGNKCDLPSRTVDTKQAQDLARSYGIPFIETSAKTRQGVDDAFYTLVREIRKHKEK
- Measurement Description: Ras-Raf (BRAF RBD) disruption / FRET / MOA assay, KRAS WT
- Type: biochemical
- Run Conditions: read-out: IC50* KRAS WT FRET data
pIC50: −log10 of the molar value.
Value Kind: pIC50

Sample CO[C@@H](C)c1ncccc1-c1c2c3cc(ccc3n1CC(F)(F)F)-c1nnc(o1)C[C@H](NC(=O)[C@H](C(C)C)N(C)C(=O)[C@H]1CCN(C(=O)C#CC(C)(C)N3CCC3)C1)C(=O)N1CCC[C@H](N1)C(=O)OCC(C)(C)C2 [Example A423] — what was its pIC50? 5.00 to 6.00

What measured pIC50 goes with C=CC(=O)N1CCOC2(CCN(C(=O)N(C)[C@H](C(=O)N[C@H]3Cc4cc(CF)cc(c4)-c4ccc5c(c4)c(c(-c4cccnc4[C@H](C)OC)n5CC(F)(F)F)CC(C)(C)COC(=O)[C@@H]4CCCN(N4)C3=O)C(C)C)CC2)C1 (atropisomer, axis not shown) [Example A605] ? 7.00 to 8.00

Sample C=CC(=O)N1C[C@H](C)N(C(=O)N(C)[C@H](C(=O)N[C@H]2Cc3nc(cs3)-c3ccc4c(c3)c(c(-c3cccnc3[C@H](C)OC)n4CC)CC(C)(C)COC(=O)[C@@H]3CCCN(N3)C2=O)C(C)C)CC12CC2 (atropisomer, axis not shown) [Example A586] — what was its pIC50? 6.00 to 7.00

# next compound below
Which pIC50 is reported for this compound? CCn1c(-c2cccnc2COC)c2c3cc(ccc31)-c1cc(O)cc(c1)C[C@H](NC(=O)[C@H](C(C)C)N(C)C(=O)[C@H]1CCN(C(=O)C#CC3(N(C)C)COC3)C1)C(=O)N1CCC[C@H](N1)C(=O)OCC(C)(C)C2 [Example A241] 5.00 to 6.00

====

- Experimental System: KRAS G12S (Homo sapiens (Human), UniProt P01116+P62937, G12S)
- Sequence (P01116-2 other isoform, or with tags, fused parts or gaps G12S): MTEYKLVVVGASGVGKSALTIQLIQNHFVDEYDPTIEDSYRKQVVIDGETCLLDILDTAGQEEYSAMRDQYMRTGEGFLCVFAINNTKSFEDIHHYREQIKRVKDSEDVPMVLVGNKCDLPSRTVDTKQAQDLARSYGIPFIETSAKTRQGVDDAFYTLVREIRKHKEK
- Sequence (P62937 whole entry): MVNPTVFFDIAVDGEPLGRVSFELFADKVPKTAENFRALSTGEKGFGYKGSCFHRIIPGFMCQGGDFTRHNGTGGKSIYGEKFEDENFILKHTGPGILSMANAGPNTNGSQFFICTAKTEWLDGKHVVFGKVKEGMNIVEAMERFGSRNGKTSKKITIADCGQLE
- Measurement Description: Ras-Raf (BRAF RBD) disruption / FRET / MOA assay, KRAS G12S
- Format: biochemical
- Run Conditions: Ras-Raf disruption/FRET/MOA assay; class symbols; read-out: KRAS G12S FRET data IC50
Value Kind: IC50

Quick one: IC50 of C=CC(=O)N1CC[C@H](C(=O)N(C)[C@H](C(=O)N[C@H]2Cc3cccc(c3F)-c3ccc4c(c3)c(c(-c3cccnc3[C@H](C)OC)n4CC)CC(C)(C)COC(=O)[C@@H]3CCCN(N3)C2=O)C(C)C)C1 (atropisomer, axis not shown) ? 1 to 10 µM

# input molecule: CCn1c(-c2cccnc2[C@H](C)OC)c2c3cc(ccc31)-c1cccc(c1)CC(NC(=O)[C@H](C(C)C)N1CC[C@]3(CCN(C(=O)C#C[C@@H]4COCCN4C4COC4)C3)C1=O)C(=O)N1CCC[C@H](N1)C(=O)OCC(C)(C)C2 (stereo partly shown) ; wanted: its IC50 1 to 10 µM

Please look up its IC50: CCn1c(-c2cccnc2[C@H](C)OC)c2c3cc(ccc31)-c1cccc(c1)C[C@H](NC(=O)[C@H](C(C)C)N(C)C(=O)[C@H]1CCN(C(=O)C#C[C@@H]3COCCN3C)C1)C(=O)N1CCC[C@H](N1)C(=O)OCC(C)(C)C2 1 to 10 µM

---
For CCn1c(-c2cncnc2)c2c3cc(ccc31)-c1cccc(c1)C[C@H](NC(=O)[C@H](C(C)C)N(C)C(=O)[C@H]1CCN(C(=O)C#CCN3CCOCC3)C1)C(=O)N1CCC[C@H](N1)C(=O)OCC(C)(C)C2 , what is its reported IC50? > 10 µM

What does the record list as IC50 for C=CC(=O)N1CCN(C(=O)N(C)[C@H](C(=O)N[C@H]2Cc3cc(O)cc(c3)-c3ccc4c(c3)c(c(-c3ccccc3CCOC)n4CC)CC(C)(C)COC(=O)[C@@H]3CCCN(N3)C2=O)C(C)C)C[C@H]1COC ? 1 to 10 µM

Look at this molecule and give its reported IC50. C=CC(=O)N1CC(N(C)C(=O)N(C)[C@H](C(=O)N[C@H]2Cc3nc(cs3)-c3ccc4c(c3)c(c(-c3cccnc3[C@H](C)OC)n4CC(F)(F)F)CC(C)(C)COC(=O)[C@@H]3CCCN(N3)C2=O)C(C)C)C1 (atropisomer, axis not shown) 0.1 to 1 µM

Recorded IC50 of CCn1c(-c2cccnc2COC)c2c3cc(ccc31)-c1cc(O)cc(c1)C[C@H](NC(=O)[C@H](C(C)C)N(C)C(=O)[C@H]1CCN(C(=O)C#CCN3CCOCC3)C1)C(=O)N1CCC[C@H](N1)C(=O)OCC(C)(C)C2 , please. 0.1 to 1 µM

Recorded IC50 for C=CC(=O)N1CCC(C(=O)N(C)[C@H](C(=O)N[C@H]2Cc3cc(O)cc(c3)-c3ccc4c(c3)c(c(-c3ccccc3CCOC)n4CC)CC(C)(C)c3coc(n3)[C@@H]3CCCN(N3)C2=O)C(C)C)C1 (single isomer, unassigned) , please? > 10 µM

Find the recorded IC50 belonging to C=CC(=O)N1CCC(C(=O)N(C)[C@H](C(=O)N[C@H]2Cc3cc(CF)cc(c3)-c3ccc4c(c3)c(c(-c3cccnc3[C@H](C)OC)n4CC(F)(F)F)CC(C)(C)COC(=O)[C@@H]3CCCN(N3)C2=O)C(C)C)C1 (stereo partly shown) and report it. 0.1 to 1 µM
